# ASSAYED_TARGET: Phospholipase A2, membrane associated (Homo sapiens)
# ASSAY_INFO: Inhibition of PLA2 induced contraction of GP lung tissue (Guinea pig) (n=4)
# Type: functional, tissue-based
# ASSAY_CONDITIONS: Cavia porcellus, target entry is the homologue from another species
We label by threshold. Values of Kb strictly beneath 2 µM are True. Values of 2 µM and up are False.

COc1ccc2c(c1)c(CC(=O)NN)c(C)n2Cc1ccccc1-c1ccccc1    False
COc1ccc2c(c1)c(CC(=O)NN)cn2Cc1ccccc1    False
COc1ccc2c(c1)c(CC(=O)NN)c(C)n2Cc1cccc(O)c1    False
COc1ccc2c(c1)c(CC(=O)NN)c(C)n2Cc1cccc(Cl)c1    True
COc1ccc2c(c1)c(CC(=O)NN)c(Cl)n2Cc1ccccc1    True
COc1ccc2c(c1)c(CC(N)=O)c(SC)n2Cc1ccccc1    False
CCc1c(CC(=O)NN)c2cc(OC)ccc2n1Cc1ccccc1-c1ccccc1    False
CCc1c(CC(N)=O)c2cc(OC)ccc2n1Cc1ccccc1    False
COc1ccc2c(c1)c(CC(N)=O)c(C)n2CC1CCCCC1    False
CCCc1c(CC(=O)NN)c2cc(OC)ccc2n1Cc1ccccc1    False

Req: Item Cc1c(CC(=O)NN)c2cc(C(=O)O)ccc2n1Cc1cccc(Cl)c1 : Kb beneath 2 µM, strictly?
Resp: True

Req: In the record for COc1ccc2c(c1)c(CC(=O)NN)c(C)n2Cc1cccc(-c2ccccc2)c1 , is Kb less than 2 µM?
Resp: False

Req: Could you please tell me whether Kb recorded for COc1ccc2c(c1)c(CC(=O)NN)c(C)n2Cc1cccc(OCc2ccccc2)c1 is less than 2 µM?
Resp: False

Req: Is the reported Kb for COc1ccc2c(c1)c(CC(=O)NN)c(Br)n2Cc1ccccc1 strictly below 2 µM?
Resp: True
